- experimental_system: Glycogen synthase kinase-3 beta (Homo sapiens, UniProt P49841)
- Sequence (P49841 whole entry): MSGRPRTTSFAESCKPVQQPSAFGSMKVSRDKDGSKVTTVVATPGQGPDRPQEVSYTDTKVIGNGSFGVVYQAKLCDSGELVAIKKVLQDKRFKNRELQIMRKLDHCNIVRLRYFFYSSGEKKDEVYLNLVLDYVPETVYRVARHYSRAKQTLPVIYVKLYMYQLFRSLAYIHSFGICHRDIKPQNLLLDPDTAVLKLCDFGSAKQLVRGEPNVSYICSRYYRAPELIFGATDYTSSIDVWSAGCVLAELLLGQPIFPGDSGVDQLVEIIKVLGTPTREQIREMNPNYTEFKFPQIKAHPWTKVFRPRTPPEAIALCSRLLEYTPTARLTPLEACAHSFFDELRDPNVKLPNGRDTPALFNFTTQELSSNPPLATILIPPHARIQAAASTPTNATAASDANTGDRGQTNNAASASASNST
- Assay type: functional, cell-based, Cricetulus griseus, CHO-hIR
experimental_endpoint: EC50 (µM)
One number for each entry, in µM.

As a guide, the following entries are already answered.
smiles_str	experimental_system	EC50 [µM]
Nc1nonc1-n1nnc(C(=O)NCCc2ccncc2)c1CN1CCCCC1	Glycogen synthase kinase-3 beta (Homo sapiens, UniProt P49841)	57.5
Nc1nonc1-n1nnc(C(=O)N/N=C/c2ccncc2)c1CN1CCCCC1	Glycogen synthase kinase-3 beta (Homo sapiens, UniProt P49841)	4.54

Now for a further compound.
Q. Return EC50 for the following compound: `Nc1nonc1-n1nnc(-c2nnc(-c3ccncc3)[nH]2)c1CN1CCCCC1`
A. 11.1

* * *

Please provide measured IC50 for the entries that follow.
- experimental_system: Cyclin-dependent kinase 2/cyclin A (Homo sapiens)
- protocol_text: Inhibition of Cyclin-dependent kinase 2-cyclin A
Give bare numbers, in µM.

smiles_str	experimental_system	IC50 (µM)
Nc1nonc1-n1nnc(C(=O)NCCc2ccncc2)c1CN1CCCCC1	Cyclin-dependent kinase 2/cyclin A (Homo sapiens)	119

Q. Fill in IC50 for record `Nc1nonc1-n1nnc(C(=O)N/N=C/c2ccncc2)c1CN1CCCCC1`
A. 96

* * *

- experimental_system: Glycogen synthase kinase-3 beta (Homo sapiens)
For each of the molecules below, state its pIC50.
Give bare numbers, as −log10 of the molar value.

smiles_str	pIC50
NNC(=O)c1nnn(-c2nonc2N)c1CN1CCCCC1	5.02
CCN(CC)Cc1c(C(=O)NCCc2ccncc2)nnn1-c1nonc1N	4.93
Nc1nonc1-n1nnc(-c2nnc(-c3ccncc3)[nH]2)c1CN1CCCCC1	6.55
Nc1nonc1-n1nnc(C(=O)N/N=C/c2ccncc2)c1CN1CCCCC1	7.00
CCN(CC)Cc1c(C(=O)N/N=C/c2ccncc2)nnn1-c1nonc1N	6.39

State the recorded pIC50 for every item in the following list.
1. Nc1nonc1-n1nnc(C(=O)NCCc2ccncc2)c1CN1CCCC1
2. Nc1nonc1-n1nnc(C(=O)NCc2ccncc2)c1CN1CCCCC1
3. Nc1nonc1-n1nnc(C(=O)N/N=C/c2ccncc2)c1CN1CCCC1
4. Nc1nonc1-n1nnc(C(=O)NCCc2ccncc2)c1CN1CCCCC1
5. CN(C)Cc1c(-c2n[nH]c(-c3ccncc3)n2)nnn1-c1nonc1N
6. Nc1nonc1-n1nnc(-c2n[nH]c(-c3ccncc3)n2)c1CN1CCCC1

A.
1: 5.68; 2: 5.03; 3: 7.00; 4: 5.94; 5: 5.16; 6: 6.62
